- tgt: T1, dP75 PWWP K53A (Drosophila melanogaster, UniProt Q9VAA9 9-90, K53A)
- T1 sequence: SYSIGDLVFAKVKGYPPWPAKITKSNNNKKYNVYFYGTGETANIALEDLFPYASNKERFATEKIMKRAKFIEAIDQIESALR
- method: fluorescence polarization
property name: pKd
API: returns pKd as number; meaning -log10 of concentration in mol/L.

Which pKd reading was recorded for the binder TTTTTTTTTTTT (ssDNA) [FAM-12T (polyT)] ? 3.96
